Measured EC50 accompanies every entry in the list below.
- TARGET DESC: androgen receptor (Homo sapiens, UniProt P10275, DEL75-80/DUP470-473)
- Construct: expressed in transfected cells; host or cells: human-derived CHP212 cells, stably transformed with pGL3-TATA-3xARE and pRC/RSV-hAR Kozak
- Sequence (P10275 with tags, fused parts or gaps DEL75-80/DUP470-473): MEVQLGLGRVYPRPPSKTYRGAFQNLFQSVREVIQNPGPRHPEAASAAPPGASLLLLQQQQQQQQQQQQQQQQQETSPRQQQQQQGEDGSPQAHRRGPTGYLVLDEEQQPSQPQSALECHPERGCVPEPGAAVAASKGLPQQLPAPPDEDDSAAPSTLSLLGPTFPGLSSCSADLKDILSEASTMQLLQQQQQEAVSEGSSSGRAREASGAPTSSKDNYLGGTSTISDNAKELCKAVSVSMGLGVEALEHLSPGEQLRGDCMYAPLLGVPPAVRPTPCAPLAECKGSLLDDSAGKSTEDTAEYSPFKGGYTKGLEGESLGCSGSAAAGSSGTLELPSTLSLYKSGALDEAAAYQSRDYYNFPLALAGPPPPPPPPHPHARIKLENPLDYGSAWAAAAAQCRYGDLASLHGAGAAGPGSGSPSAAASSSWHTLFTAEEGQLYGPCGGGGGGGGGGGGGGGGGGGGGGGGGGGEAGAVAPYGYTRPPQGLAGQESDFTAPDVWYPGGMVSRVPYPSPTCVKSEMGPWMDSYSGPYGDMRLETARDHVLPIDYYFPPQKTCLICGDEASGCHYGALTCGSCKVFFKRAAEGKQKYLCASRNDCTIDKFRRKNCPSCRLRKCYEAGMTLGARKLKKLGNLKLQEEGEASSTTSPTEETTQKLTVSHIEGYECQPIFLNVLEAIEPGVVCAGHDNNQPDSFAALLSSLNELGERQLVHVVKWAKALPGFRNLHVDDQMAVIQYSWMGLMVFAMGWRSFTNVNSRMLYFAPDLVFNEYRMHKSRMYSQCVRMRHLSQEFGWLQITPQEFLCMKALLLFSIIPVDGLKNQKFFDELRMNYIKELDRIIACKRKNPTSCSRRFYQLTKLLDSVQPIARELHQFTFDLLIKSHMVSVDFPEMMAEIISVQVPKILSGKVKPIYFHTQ
- PROTOCOL DESCRIPTION: Androgen receptor agonist activity by reporter gene assay method
- Format: cell-based
- MEASUREMENT SETUP: agonist activity; transformed human-derived CHP212 cells with pGL3-TATA-3×ARE luciferase reporter and pRC/RSV-hAR Kozak; 24 hours; read-out: EC50
Form entry: value (nM) — number only.

- CCCN(CC1OCCO1)c1cc(Br)c(C#N)s1 [Example 31]: 750

Shift focus to the following entry.
stdin: Please supply the value of reported EC50 for the item C=CCN(CC=C)c1cc(Br)c(C#N)s1 [Example 15]
stdout: 13.1

Cited source for all entries: patent US20120065231A1
